Ref: patent EP2140864A2

Biological target: human α1A adrenoceptor (Homo sapiens)
Construct: expressed in transfected cells
Sequence (P35348 whole entry): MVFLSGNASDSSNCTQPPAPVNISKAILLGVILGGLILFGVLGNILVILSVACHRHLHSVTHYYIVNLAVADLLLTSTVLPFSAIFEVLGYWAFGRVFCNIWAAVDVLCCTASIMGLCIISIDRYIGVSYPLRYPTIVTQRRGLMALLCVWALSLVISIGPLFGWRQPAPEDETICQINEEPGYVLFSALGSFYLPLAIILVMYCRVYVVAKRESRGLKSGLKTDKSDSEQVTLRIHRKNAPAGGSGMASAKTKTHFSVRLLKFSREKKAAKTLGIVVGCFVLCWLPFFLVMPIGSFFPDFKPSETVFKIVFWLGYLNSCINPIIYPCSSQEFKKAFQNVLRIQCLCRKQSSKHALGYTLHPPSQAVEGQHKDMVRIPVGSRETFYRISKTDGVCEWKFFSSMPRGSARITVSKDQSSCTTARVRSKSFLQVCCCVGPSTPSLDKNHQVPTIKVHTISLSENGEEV
Assay: Radioligand binding, α1A adrenergic receptor
Conditions: Table 10; Ki hα1A divided by Ki hGAL3

| CHEMICAL STRUCTURE | selectivity ratio hα1A |
| --- | --- |
| Cc1ccc(Nc2cc(N3CCCCC3)nc(N(C)CCc3ccccc3)n2)cc1 | >30 |
| O=C1C(=Nc2ccc(C(F)(F)F)cc2)c2ccccc2N1c1ccccc1 | >100 |
| Cc1ccc(Nc2cc(N3CCCCC3)nc(N(C)CCc3c[nH]c4ccccc34)n2)cc1 | 10 |
| Cc1ccc(Nc2cc(N3CCCCC3)nc(N3CCN(c4ncccc4C(F)(F)F)CC3)n2)cc1 | >100 |
| Cc1ccc(Nc2cc(N(C)C)nc(N(C)CCc3c[nH]c4ccccc34)n2)cc1 | 11 |
| O=C1C(=Nc2cccc(Cl)c2)c2ccccc2N1c1ccccc1 | >100 |
| COc1cccc(Nc2cc(N3CCCCC3)nc(N(C)CCc3c[nH]c4ccccc34)n2)c1 | 11 |

* * *

Target: human GAL3 receptor (Homo sapiens, UniProt O60755)
Construct: expressed in transfected cells
Sequence (O60755 1-368): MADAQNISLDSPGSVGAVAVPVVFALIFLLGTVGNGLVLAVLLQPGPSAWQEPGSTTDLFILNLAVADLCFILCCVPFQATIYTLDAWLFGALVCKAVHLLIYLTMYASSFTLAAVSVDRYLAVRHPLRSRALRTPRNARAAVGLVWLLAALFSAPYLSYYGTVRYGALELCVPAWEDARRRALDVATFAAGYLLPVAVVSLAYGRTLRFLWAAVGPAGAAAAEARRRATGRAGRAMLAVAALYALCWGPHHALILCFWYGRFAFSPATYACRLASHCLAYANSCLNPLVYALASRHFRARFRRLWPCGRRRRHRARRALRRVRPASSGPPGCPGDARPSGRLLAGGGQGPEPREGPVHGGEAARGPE
Experiment: Radioligand binding at cloned human GAL3 receptor
Conditions: pyrimidines, cloned human receptor; read-out: Ki GalR3
PARAMETER MEASURED: Ki (nM)

| COMPOUND | PARAMETER MEASURED | TEST RESULT |
| --- | --- | --- |
| CN(C)c1cc(N[C@H]2CC3CC[C@]2(C)C3(C)C)nc(N2CCN(Cc3ccccc3)CC2)n1 [Example 167] | Ki | 50 |
| COc1cccc(Nc2cc(N(C)C)nc(N(C)CCc3ccccn3)n2)c1 [Example 177] | Ki | 142 |
| CN(C)c1cc(NC2CCC(C(C)(C)C)CC2)nc(N2CCN(Cc3ccccc3)CC2)n1 (centres unmarked) [Example 169] | Ki | 77 |
| Cc1ccc(Nc2cc(N(C)C)nc(N3CCN(c4ccccc4C)CC3)n2)cc1 [Example 85] | Ki | 72 |
| Cc1ccc(Nc2cc(N(C)C)nc(N3CCN(c4ccc(C)cc4)CC3)n2)cc1 [Example 87] | Ki | 157 |
| COc1cccc(Nc2cc(N(C)C)nc(N3CCN(Cc4ccsc4)CC3)n2)c1 [Example 146] | Ki | 72 |
| CN(C)c1cc(NC2CCC(C(C)(C)C)CC2)nc(Nc2ccccc2)n1 (centres unmarked) [Example 68] | Ki | 164 |
| Cc1cccc(Nc2cc(N(C)C)nc(N3CCN(c4ccccn4)CC3)n2)c1C [Example 215] | Ki | 450 |
| CN(C)c1cc(Nc2ccc(Oc3ccccc3)cc2)nc(Nc2ccccc2)n1 [Example 64] | Ki | 572 |
| Cc1ccc(Nc2cc(N3CCCCC3)nc(N3CCN(c4cccc(C(F)(F)F)n4)CC3)n2)cc1 [Example 33] | Ki | 181 |
| Cc1ccc(Nc2cc(N(C)C)nc(N3CCN(CC4CCCO4)CC3)n2)cc1 (centres unmarked) [Example 154] | Ki | 441 |
| Cc1ccc(Nc2cc(N(C)C)nc(Nc3ccc(C)cc3)n2)cc1 [Example 56] | Ki | 794 |
| CN(C)c1cc(NC2C3(C)CCC(C3)C2(C)C)nc(N2CCN(Cc3ccccc3)CC2)n1 (centres unmarked) [Example 130] | Ki | 100 |
| Cc1ccc(Nc2cc(N3CCCCC3)nc(N3CCN(c4cc(C(F)(F)F)ccn4)CC3)n2)cc1 [Example 32] | Ki | 145 |
| COc1cccc(Nc2cc(N(C)C)nc(N3CCN(Cc4ccccc4)CC3)n2)c1 [Example 252] | Ki | 88 |
| Cc1ccc(Nc2cc(N(C)C)nc(NCCc3c[nH]c4ccccc34)n2)cc1 [Example 76] | Ki | 392 |
| COCCN(c1nc(Nc2ccc(C)cc2)cc(N(C)C)n1)C1CCCCC1 [Example 74] | Ki | 47 |
